- ASSAYED SYSTEM: 11-beta-hydroxysteroid dehydrogenase 1 (Mus musculus)
- Sequence (P50172 whole entry): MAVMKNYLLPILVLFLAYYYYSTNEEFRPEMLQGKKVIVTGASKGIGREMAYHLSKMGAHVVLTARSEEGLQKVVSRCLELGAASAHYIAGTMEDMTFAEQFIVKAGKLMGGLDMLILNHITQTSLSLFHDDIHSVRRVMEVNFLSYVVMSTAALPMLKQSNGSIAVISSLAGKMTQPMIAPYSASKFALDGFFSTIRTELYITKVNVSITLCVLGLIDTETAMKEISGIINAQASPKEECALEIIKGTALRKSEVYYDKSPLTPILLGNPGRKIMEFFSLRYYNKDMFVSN
ATTRIBUTE MEASURED: IC50 (nM)
Numbers only, in nM.

Look up IC50: C[C@@H]1CN(c2ccc(C(C)(C)O)cc2)CCN1c1cccc(C(=O)N[C@H]2C3CC4CC2C[C@](O)(C4)C3)n1
6.6

* * *

- ASSAY METHOD TEXT: Clearance in mouse at 5 mg/kg, iv
- Format: ADME, organism-based
- Design: dose 5 mg/kg, route intravenous
- CONDITION SUMMARY: in vivo
ATTRIBUTE MEASURED: clearance

Worked examples follow.
C[C@@H]1CN(c2ccc(S(C)(=O)=O)cc2)CCN1c1cccc(C(=O)N[C@H]2C3CC4CC2C[C@](O)(C4)C3)n1: 14.2 mL/min/kg
C[C@@H]1CN(c2ccc(C(C)(C)O)cc2)CCN1c1cccc(C(=O)N[C@H]2C3CC4CC2C[C@](O)(C4)C3)n1: 7.67 mL/min/kg

Consider the additional compound presented here.
Look up clearance: CS(=O)(=O)c1ccc(N2CCN(c3cccc(C(=O)N[C@H]4C5CC6CC4C[C@](O)(C6)C5)n3)CC2)cc1
29.7 mL/min/kg
